- ASSAYED_SYSTEM: human SCD1 (hSCD-1) (Homo sapiens, UniProt O00767)
- Sequence (O00767 1-359): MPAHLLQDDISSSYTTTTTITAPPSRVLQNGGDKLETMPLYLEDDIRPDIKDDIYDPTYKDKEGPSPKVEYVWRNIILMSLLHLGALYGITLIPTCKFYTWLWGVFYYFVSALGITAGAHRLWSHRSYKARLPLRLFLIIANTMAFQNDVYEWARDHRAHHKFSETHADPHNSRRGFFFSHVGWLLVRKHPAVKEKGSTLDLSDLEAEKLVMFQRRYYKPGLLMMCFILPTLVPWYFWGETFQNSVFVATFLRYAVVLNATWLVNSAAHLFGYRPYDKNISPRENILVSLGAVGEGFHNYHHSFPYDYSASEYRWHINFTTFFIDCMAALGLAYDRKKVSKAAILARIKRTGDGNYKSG
Measured IC50 of individual entries

>  <SMILES_STRING>
O=C(O)Cn1nnc(-c2cc(N3CCC(C(=O)c4cc(F)ccc4C4CCC4)CC3)no2)n1

>  <ASSAYED_SYSTEM>
human SCD1 (hSCD-1) (Homo sapiens, UniProt O00767)

>  <UNIT_ABBREV>
µM

>  <READING_QUALIFIER>
<

>  <IC50>
0.02

$$$$
>  <SMILES_STRING>
Cc1ccc(F)cc1C(=O)C1CCN(c2cc(-c3nnn(CC(=O)O)n3)on2)CC1

>  <ASSAYED_SYSTEM>
human SCD1 (hSCD-1) (Homo sapiens, UniProt O00767)

>  <UNIT_ABBREV>
µM

>  <READING_QUALIFIER>
=

>  <IC50>
0.02

$$$$
>  <SMILES_STRING>
Cc1ccc(Cl)c(C(=O)C2CCN(c3cc(-c4nnn(CC(=O)O)n4)on3)CC2)c1

>  <ASSAYED_SYSTEM>
human SCD1 (hSCD-1) (Homo sapiens, UniProt O00767)

>  <UNIT_ABBREV>
µM

>  <READING_QUALIFIER>
=

>  <IC50>
0.079

$$$$
>  <SMILES_STRING>
O=C(O)Cn1nnc(-c2cc(N3CCC(C(=O)c4ccccc4C(F)(F)F)CC3)no2)n1

>  <ASSAYED_SYSTEM>
human SCD1 (hSCD-1) (Homo sapiens, UniProt O00767)

>  <UNIT_ABBREV>
µM

>  <READING_QUALIFIER>
<

>  <IC50>
0.02

$$$$
>  <SMILES_STRING>
COc1ccc(Cl)c(C(=O)C2CCN(c3cc(-c4nnn(CC(=O)O)n4)on3)CC2)c1

>  <ASSAYED_SYSTEM>
human SCD1 (hSCD-1) (Homo sapiens, UniProt O00767)

>  <UNIT_ABBREV>
µM

>  <READING_QUALIFIER>
=

>  <IC50>
0.095

$$$$

---

- ASSAYED_SYSTEM: human SCD1 (hSCD-1) (Homo sapiens, UniProt O00767)
- Sequence (O00767 1-359): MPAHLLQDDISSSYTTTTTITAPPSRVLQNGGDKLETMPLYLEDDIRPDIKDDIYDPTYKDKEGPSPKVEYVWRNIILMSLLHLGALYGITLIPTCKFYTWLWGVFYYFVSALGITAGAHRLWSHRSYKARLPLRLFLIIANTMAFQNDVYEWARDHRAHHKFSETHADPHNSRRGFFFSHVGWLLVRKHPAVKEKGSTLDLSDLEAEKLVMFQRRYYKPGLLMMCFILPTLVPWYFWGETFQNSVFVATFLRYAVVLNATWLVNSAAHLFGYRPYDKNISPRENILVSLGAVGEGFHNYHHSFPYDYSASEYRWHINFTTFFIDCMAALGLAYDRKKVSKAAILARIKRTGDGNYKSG
pIC50: −log10 of the molar value.

>  <MOLECULE>
O=C(O)Cn1nnc(-c2cnc(N3CC=C(c4ccccc4C(F)(F)F)CC3)s2)n1

>  <pIC50>
> 7.70

$$$$
>  <MOLECULE>
Cc1ccc(Cl)cc1C(=O)C1CCN(c2cc(-c3nnn(CC(=O)O)n3)on2)CC1

>  <pIC50>
7.55

$$$$
>  <MOLECULE>
O=C(O)Cn1nnc(-c2cc(N3CCC(C(=O)c4cc(Br)ccc4Br)CC3)no2)n1

>  <pIC50>
> 7.70

$$$$
>  <MOLECULE>
CCC(C)c1ccc(F)cc1C(=O)C1CCN(c2cc(-c3nnn(CC(=O)O)n3)on2)CC1 (stereo not drawn) [drawing 70]

>  <pIC50>
> 7.70

$$$$
>  <MOLECULE>
CC(C)(F)c1ccccc1C(=O)C1CCN(c2cc(-c3nnn(CC(=O)O)n3)on2)CC1

>  <pIC50>
> 7.70

$$$$
>  <MOLECULE>
O=C(O)Cn1nnc(-c2cnc(N3CCC(c4cccc(C(F)(F)F)c4)CC3)s2)n1

>  <pIC50>
> 7.70

$$$$
>  <MOLECULE>
COc1ccc(OC(F)(F)F)cc1C(=O)C1CCN(c2cc(-c3nnn(CC(=O)O)n3)on2)CC1

>  <pIC50>
7.07

$$$$
>  <MOLECULE>
CC1(c2ccccc2C(=O)C2CCN(c3cc(-c4nnn(CC(=O)O)n4)on3)CC2)CC1

>  <pIC50>
> 7.70

$$$$
>  <MOLECULE>
O=C(O)Cn1nnc(-c2cc(N3CCC(C(=O)c4cc(F)ccc4Cl)CC3)no2)n1

>  <pIC50>
> 7.70

$$$$
>  <MOLECULE>
O=C(O)Cn1nnc(-c2cc(N3CCC(C(=O)c4cc(Cl)ccc4C(F)(F)F)CC3)no2)n1

>  <pIC50>
7.49

$$$$
>  <MOLECULE>
O=C(O)Cn1nnc(-c2cnc(N3CCCN(c4cc(F)ccc4Cl)CC3)s2)n1

>  <pIC50>
7.54

$$$$
>  <MOLECULE>
O=C(O)Cn1nnc(-c2cc(N3CCC(C(=O)c4ccccc4OC(F)(F)F)CC3)no2)n1

>  <pIC50>
7.18

$$$$
>  <MOLECULE>
O=C(O)Cn1nnc(-c2cc(N3CCC(C(=O)c4cc(F)ccc4C(F)(F)F)CC3)no2)n1

>  <pIC50>
> 7.70

$$$$
>  <MOLECULE>
O=C(O)Cn1nnc(-c2cnc(N3CCN(c4cccc(OC(F)(F)F)c4)CC3)s2)n1

>  <pIC50>
> 7.70

$$$$
>  <MOLECULE>
O=C(O)Cn1nnc(-c2cnc(N3CCC(C(=O)c4cc(F)ccc4Cl)CC3)nc2)n1

>  <pIC50>
7.34

$$$$
>  <MOLECULE>
CC1(c2ccc(F)cc2C(=O)C2CCN(c3cc(-c4nnn(CC(=O)O)n4)on3)CC2)CC1

>  <pIC50>
> 7.70

$$$$
>  <MOLECULE>
O=C(O)Cn1nnc(-c2cnc(N3CCN(c4cc(Cl)ccc4F)CC3)s2)n1

>  <pIC50>
> 7.70

$$$$
>  <MOLECULE>
O=C(O)Cn1nnc(-c2cc(N3CCC(C(=O)c4cc(Cl)ccc4C(F)F)CC3)no2)n1

>  <pIC50>
> 7.70

$$$$
